All values here come from patent US7049311B1.

# Test system: CH1
# protocol.notes: Ovarian carcinoma cytotoxicity assay
# Type: cell-based
# recorded.conditions: Homo sapiens, CH1; 96 hours, sulphorhodamine B; read-out: IC50 CH1
Please respond with reported IC50 for every item in the list.
Give bare numbers, in nM.

O=C1c2cc(-c3cccc([N+](=O)[O-])c3)ccc2N=C[C@@H]2CCCN12; 22500
COc1ccc(-c2ccc3c(c2)C(=O)N2CCC[C@H]2C=N3)cc1; 1350
C=C1C[C@H]2C=Nc3ccc(I)cc3C(=O)N2C1; 370
O=C1c2cc(-c3ccccc3)ccc2N=C[C@@H]2CCCN12; 1500

Please give IC50, item by item, for the list that follows.
1. C=C1C[C@H]2C=Nc3cc(OCc4ccccc4)c(OC)cc3C(=O)N2C1
2. C=C1C[C@H]2C=Nc3cc(OC)c(OC)cc3C(=O)N2C1
3. COc1ccc2c(c1)C(=O)N1CCC[C@H]1C=N2 (stereo in doubt)
4. COC(=O)CC1=CN2C(=O)c3cc(OC)c(OCc4ccccc4)cc3N=C[C@@H]2C1

Result:
[17, 66, 520, 16]

Ask: Quick one: IC50 of `COC(=O)CC1=CN2C(=O)c3cc(OC)c(OC)cc3N=C[C@@H]2C1` ?
Result: 115

----------
# Tested on: UACC-62
# protocol.notes: NCI in vitro cytotoxicity screen
# Assay type: cell-based
# recorded.conditions: read-out: LC50; UACC-62 (Melanoma), 48 hour exposure, SRB assay
observed.property: CC50 (nM)
One number for each entry, in nM.

Ask: Quick one: CC50 of `C=C1C[C@H]2C=Nc3cc(OCCCOc4cc5c(cc4OC)C(=O)N4CC(=C)C[C@H]4C=N5)c(OC)cc3C(=O)N2C1` ?
Result: 77

----------
# Test system: UACC-62
# protocol.notes: NCI in vitro cytotoxicity screen
# Assay type: cell-based
# recorded.conditions: Homo sapiens, UACC-62, 48 h, read-out: LC50
Please respond with reported CC50 for every item in the list.
Give bare numbers, in µM.

Solved cases below.
O=C1c2cc(-c3ccccc3)ccc2N=C[C@@H]2CCCN12; 6.6
COC(=O)CC1=CN2C(=O)c3cc(OC)c(OCc4ccccc4)cc3N=C[C@@H]2C1; 0.7
C=C1C[C@H]2C=Nc3cc(OC)c(OC)cc3C(=O)N2C1; 0.6

Please give CC50, item by item, for the list that follows.
1. C=C1C[C@H]2C=Nc3ccc(I)cc3C(=O)N2C1
2. COc1cc2c(cc1OCc1ccccc1)N=C[C@@H]1CC(=O)CN1C2=O
3. C=C1C[C@H]2C=Nc3cc(OCc4ccccc4)c(OC)cc3C(=O)N2C1

Result:
1. 7.2
2. 3
3. 5.3

----------
# Tested on: A2780
# protocol.notes: Ovarian carcinoma cytotoxicity assay
# Assay type: cell-based, human
# recorded.conditions: Homo sapiens, A2780, 96 h, read-out: IC50 A2780
observed.property: pIC50
Answers are plain numbers, as −log10 of the molar value.

Ask: API: value(readout= pIC50, system= A2780, query= `C=C1C[C@H]2C=Nc3cc(OCCCOc4cc5c(cc4OC)C(=O)N4CC(=C)C[C@H]4C=N5)c(OC)cc3C(=O)N2C1` )
Result: 10.64

----------
# Tested on: MALME-3M
# protocol.notes: NCI in vitro cytotoxicity screen
# Assay type: cell-based
# recorded.conditions: Homo sapiens, Malme-3M, 48 h, read-out: LC50
# Protocol: The National Cancer Institute (NCI), Bethesda, Md., USA has available an in vitro cytotoxicity screen which consists of approximately 60 human tumour cell lines against which compounds are tested at a minimum of five concentrations each differing 10-fold. […] The test compounds were evaluated against approximately 60 human tumour cell lines. […] The test compounds were evaluated at five 10-fold dilutions (10^−4, 10^−5, 10^−6, 10^−7 and 10^−8 μM). […]
observed.property: CC50 (µM)
Numbers only, in µM.

Solved cases below.
C=C1C[C@H]2C=Nc3cc(OC)c(OC)cc3C(=O)N2C1 [UP2064 (74)]; 0.9
COc1ccc2c(c1)C(=O)N1CCC[C@H]1C=N2 (stereo in doubt) [UP2068 (96)]; 8.3

Please give CC50, item by item, for the list that follows.
1. COC(=O)CC1=CN2C(=O)c3cc(OC)c(OCc4ccccc4)cc3N=C[C@@H]2C1 [UP2003 (24)]
2. Nc1ccc2c(c1)N=C[C@@H]1CCCN1C2=O [UP2028 (151)]
3. COc1cc2c(cc1OCc1ccccc1)N=C[C@@H]1CC(CCOC(C)=O)=CN1C2=O [UP2051 (31)]
4. O=C1c2cc(-c3ccccc3)ccc2N=C[C@@H]2CCCN12 [UP2026 (136)]
5. C=C1C[C@H]2C=Nc3ccc(I)cc3C(=O)N2C1 [UP2023 (64)]
6. COc1cc2c(cc1OCCC(=O)N1CCCC1)N=C[C@@H]1CCCN1C2=O [UP2005 (161)]

Result:
0.7
5.7
5.1
6.1
7.8
7.5

Please give CC50, item by item, for the list that follows.
1. COc1cc2c(cc1OCc1ccccc1)N=C[C@@H]1CC(=O)CN1C2=O [UP2067 (172)]
2. COC(=O)CC1=CN2C(=O)c3cc(OC)c(OC)cc3N=C[C@@H]2C1 [UP2065 (42)]

Result:
1: 7.4; 2: 4.7
